# study system: human mAChR M4 (Homo sapiens, UniProt P08173)
# Construct: expressed in transfected cells; host or cells: CHO-K1 (ATCC), stably expressing hM4 and Gqi5
# assay comment: mAChR M4 cell-based functional assay: calcium flux (Fluo-4, FDSS), positive allosteric modulator activity on the EC20 acetylcholine response, hM4-Gqi5 CHO-K1 cells
# measurement context: human M4; PAM activity on EC20 acetylcholine response, calcium flux; read-out: Human M4 EC50
reported metric: pEC50
Quick note: pEC50 means taking -log10 of the concentration in moles per liter.

Sample records with pEC50:
{"compound smiles": "Cc1ccc2nc(C3CC3)nc(N3CCc4ncc(-c5cn(C)nc5C)cc4C3)c2c1", "pEC50": 6.13}
{"compound smiles": "Cc1ccc2nc(C)nc(N3CCc4ncc(-c5cn(C)nc5C)cc4C3)c2c1", "pEC50": 6.11}

Query compound follows.
Consider the compound Cc1nc(N2CCc3ncc(-c4cnn(C5CC5)c4)cc3C2)c2cc(C(F)(F)F)ccc2n1 and give its measured pEC50.
5.71

----------
Listed here: items and their measured Emax at 30 µM.
# study system: human mAChR M4 (Homo sapiens, UniProt P08173)
# Construct: expressed in transfected cells; host or cells: CHO-K1 (ATCC), stably expressing hM4 and Gqi5
# assay comment: mAChR M4 cell-based functional assay: calcium flux (Fluo-4, FDSS), positive allosteric modulator activity on the EC20 acetylcholine response, hM4-Gqi5 CHO-K1 cells
# measurement context: CHO-K1, human M4; % ACh maximum at 30 μM
In your response, the unit should come after the numeric value.

Sample records with Emax at 30 µM:
{"compound": "COc1ccc2ncnc(N3CCc4ncc(-c5ccccc5C)cc4C3)c2c1", "Emax at 30 µM": "102%"}
{"compound": "Fc1ccc2nc(C3CC3)nc(N3CCc4ncc(N5CCCn6nccc65)cc4C3)c2c1", "Emax at 30 µM": "10%"}
{"compound": "CC(O)(c1cnc2c(c1)CN(c1ncnc3cc(F)c(F)cc13)CC2)C(F)(F)F (centres unmarked)", "Emax at 30 µM": "91%"}
{"compound": "c1cnc2nc(N3CCCC3)nc(N3CCc4ncc(N5CCCn6nccc65)cc4C3)c2c1", "Emax at 30 µM": "63%"}
{"compound": "Cc1ccc(F)c(Oc2cnc3c(c2)CN(c2ncnc4ccc(Cl)cc24)CC3)c1", "Emax at 30 µM": "72%"}
{"compound": "CC1CN(c2ncnc3cc(F)c(F)cc23)Cc2cc(N3CCOCC3)cnc21 (centres unmarked)", "Emax at 30 µM": "90%"}
{"compound": "COc1ccc2ncnc(N3CCc4ncc(-c5cc(F)ccc5C)cc4C3)c2c1", "Emax at 30 µM": "101%"}
{"compound": "CC1CCN(c2cnc3c(c2)CN(c2ncnc4ccc(F)cc24)CC3)c2ccnn21 (centres unmarked)", "Emax at 30 µM": "75%"}

Reported Emax at 30 µM, compound Fc1ccc2ncnc(N3CCc4ncc(N5CCCn6ccnc65)cc4C3)c2c1 : ____
73%

Moving on to the next compound: Cc1nc(N2CCc3ncc(C(F)(F)F)cc3C2)c2cc(F)ccc2n1
86%

Queued: Cc1nc(N2CCc3ncc(-c4cnc(C)s4)cc3C2)c2cc(Cl)ccc2n1
92%

// same read-out, input: Cc1ccc2nc(Nc3ccnn3C)nc(N3CCc4ncc(C(F)(F)F)cc4C3)c2c1
85%

One more compound: COc1cc2c(N3CCc4ncc(-c5cn(C)nc5C)cc4C3)nc(C)nc2cc1F
57%

Further, for Cc1nn(C)cc1-c1cnc2c(c1)CN(c1nc(-c3cn(C)nc3C)nc3ccc(Cl)cc13)CC2 ?
68%

Okay, and Fc1ccc2nc(C(F)(F)F)nc(N3CCc4ncc(C(F)(F)F)cc4C3)c2c1 ?
50%

What do you get for CC1CN(c2ncnc3ccc(F)cc23)Cc2cc(Nc3ncnc4ccc(F)cc34)cnc21 (centres unmarked) ?
55%

Request: FC(F)(F)c1cnc2c(c1)CN(c1nc(Cl)nc3ccc(Cl)cc13)CC2
95%

----------
# study system: human mAChR M4 (Homo sapiens, UniProt P08173)
# Construct: expressed in transfected cells; host or cells: CHO-K1 (ATCC), stably expressing hM4 and Gqi5
# assay comment: mAChR M4 cell-based functional assay: calcium flux (Fluo-4, FDSS), positive allosteric modulator activity on the EC20 acetylcholine response, hM4-Gqi5 CHO-K1 cells
# measurement context: CHO-K1, human M4; % ACh maximum at 30 μM
Definition: the class of an entry is the range in bottom bin: < 80%; middle bin: ≥ 80% and < 90%; top bin: ≥ 90% that contains its Emax at 30 µM.

Examples with answers:
{"compound": "Cc1ccc2ncnc(N3CCc4ncc(-c5cc(F)ccc5C)cc4C3)c2c1", "assigned label": "top bin"}
{"compound": "CN1CCN(c2cnc3c(c2)CN(c2ncnc4ccc(F)cc24)CC3)CC12COC2", "assigned label": "top bin"}
{"compound": "Fc1cc2ncnc(N3CCc4ncc(N5CCCn6ccnc65)cc4C3)c2cc1F", "assigned label": "bottom bin"}
{"compound": "Cc1nc2c(cc1N1CCOC(C)(C)C1)CN(c1ncnc3ccc(F)cc13)CC2", "assigned label": "bottom bin"}
{"compound": "Fc1ccc2nc(N3CCOCC3)nc(N3CCc4ncc(C(F)(F)F)cc4C3)c2c1", "assigned label": "bottom bin"}

Now consider a different compound.
Classify this compound: Cc1ccc2ncnc(N3CCc4ncc(N5CCC(C(F)(F)F)n6nccc65)cc4C3)c2c1 (stereo not shown)
top bin

----------
# study system: human mAChR M4 (Homo sapiens, UniProt P08173)
# Construct: expressed in transfected cells; host or cells: CHO-K1 (ATCC), stably expressing hM4 and Gqi5
# Sequence (P08173 1-479): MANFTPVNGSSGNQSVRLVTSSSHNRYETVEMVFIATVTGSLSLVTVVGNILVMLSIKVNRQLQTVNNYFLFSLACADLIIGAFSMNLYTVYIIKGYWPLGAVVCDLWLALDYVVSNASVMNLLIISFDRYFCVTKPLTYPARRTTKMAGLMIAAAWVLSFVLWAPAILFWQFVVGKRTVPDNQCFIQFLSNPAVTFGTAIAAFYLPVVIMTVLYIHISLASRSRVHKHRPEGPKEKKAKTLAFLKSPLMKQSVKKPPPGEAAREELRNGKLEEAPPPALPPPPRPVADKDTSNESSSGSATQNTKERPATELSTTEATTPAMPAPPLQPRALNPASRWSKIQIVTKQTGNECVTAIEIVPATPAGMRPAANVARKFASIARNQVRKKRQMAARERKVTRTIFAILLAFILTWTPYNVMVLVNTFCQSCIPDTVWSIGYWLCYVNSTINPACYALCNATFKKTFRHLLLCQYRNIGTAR
# assay comment: mAChR M4 cell-based functional assay: calcium flux (Fluo-4, FDSS), positive allosteric modulator activity on the EC20 acetylcholine response, hM4-Gqi5 CHO-K1 cells
# measurement context: human M4; PAM activity on EC20 acetylcholine response, calcium flux; read-out: Human M4 EC50
reported metric: pEC50
Units for pEC50: none; it is -log10 of a concentration expressed in mol/L.

Previously resolved entries follow.
{"molecule": "Cc1ccc2ncnc(N3CCc4ncc(-c5cnn(C6CC6)c5)cc4C3)c2c1", "pEC50": 6.64}
{"molecule": "Cc1nc(N2CCc3ncc(-c4ccnn4C)cc3C2)c2cc(F)ccc2n1", "pEC50": 6.82}
{"molecule": "C[C@@H]1CN(c2ncnc3ccc(Cl)cc23)Cc2cc(N3CCOCC3)cnc21", "pEC50": 6.92}

Consider the molecule CC1CN(c2ncnc3ccc(F)cc23)Cc2cc(NC3CCCC3)cnc21 (stereo not drawn) and give its measured pEC50.
6.39

Further, for Cc1nn(C)cc1-c1cnc2c(c1)CN(c1nc(-c3cn(C)nc3C)nc3ccc(Cl)cc13)CC2 ?
5.72

Try Fc1cc2ncnc(N3CCc4ncc(Oc5ccccc5F)cc4C3)c2cc1F next.
6.57

Now the same for Cc1nc(N2CCc3ncc(-c4cc(F)ccc4C)cc3C2)c2cc(Cl)ccc2n1
5.04

Try this molecule too: Cc1ccc2ncnc(N3CCc4ncc(Nc5ccnn5C)cc4C3)c2c1
7.10

Then this molecule: Cc1nc(N2CCc3ncc(N4CCOC(c5ccccn5)C4)cc3C2)c2cc(F)ccc2n1 (stereo not drawn)
6.03

----------
# study system: human mAChR M4 (Homo sapiens, UniProt P08173)
# Construct: expressed in transfected cells; host or cells: CHO-K1 (ATCC), stably expressing hM4 and Gqi5
# assay comment: mAChR M4 cell-based functional assay: calcium flux (Fluo-4, FDSS), positive allosteric modulator activity on the EC20 acetylcholine response, hM4-Gqi5 CHO-K1 cells
# measurement context: CHO-K1, human M4; % ACh maximum at 30 μM
reported metric: Emax at 30 µM (%)
Kindly provide the numeric value in % only, without the unit symbol.

Would you please look over these solved cases?
{"compound smiles": "[2H]c1nc(N2CCc3ncc(N4CCOc5ncccc54)cc3C2)c2cc(C)ccc2n1", "quantitative result": 93}
{"compound smiles": "Cc1ccc2nc(N3CCCC3)nc(N3CCc4ncc(C(F)(F)F)cc4C3)c2c1", "quantitative result": 74}
{"compound smiles": "Clc1ccc2ncnc(N3CCc4ncc(N5CCCn6nccc65)cc4C3)c2c1", "quantitative result": 108}
{"compound smiles": "Fc1ccc2ncnc(N3CCc4ncc(-c5ccc(C(F)(F)F)nc5)cc4C3)c2c1", "quantitative result": 89}
{"compound smiles": "Cc1ccc2ncnc(N3CCc4ncc(-c5cn(C)nc5C)cc4C3)c2c1", "quantitative result": 117}

Item Cc1ccc2nc(C)nc(N3CCc4ncc(N5CCOc6ncccc65)cc4C3)c2c1 has what recorded Emax at 30 µM?
101

// same read-out, input: FC(F)(F)c1ccc(-c2cnc3c(c2)CN(c2ncnc4ccc(Cl)cc24)CC3)cn1
59
